The origin of these recorded values is patent US8993595B2.

Test summary: clinical
Experimental conditions: human, in vivo, 400 mg, T1/2, single dose 400 mg Fasted, human volunteers
Parameter measured: half-life

## Input Quick one: half-life for COc1ccc2c(O[C@H]3CCN4C(=O)N(C)CCCC/C=C\[C@@H]5C[C@@]5(C(=O)NS(=O)(=O)C5(C)CC5)NC(=O)[C@@H]4C3)cc(-c3nc(C(F)(F)F)cs3)nc2c1C [Compound 52] ?
## Output 15 h

---

Test summary: in vivo
Experimental conditions: male, cynomolgus monkey, po, 2 mg/kg
Experimental: Male mice (3/time point) and monkeys (3/dose group) were given a single IV or PO dose of compound 52 in a PEG-based vehicle. The compound was quantified in liver (LLOQ=25 ng/g) and heart (LLOQ=50 ng/g) tissue (mice only) and in plasma samples (LLOQ=5 ng/mL) after liquid-liquid extraction by HPLC-MS/MS. Six healthy volunteers were given a single 200 mg dose of the compound using the selected tablet formulation and plasma concentrations were similarly determined (LLOQ=2 ng/mL). […]
Parameter measured: Cmax (ng/mL)
One number for each entry, in ng/mL.

## Input Quick one: Cmax for COc1ccc2c(O[C@H]3CCN4C(=O)N(C)CCCC/C=C\[C@@H]5C[C@@]5(C(=O)NS(=O)(=O)C5(C)CC5)NC(=O)[C@@H]4C3)cc(-c3nc(C(F)(F)F)cs3)nc2c1C [Compound 52] ?
## Output 1030
